Tested on: Escherichia coli TOP10
Protocol Description: shrunken log2 fold change of peptide-encoding DNA abundance (4.5 h post-induction vs induction); higher = less antimicrobial activity (less host growth inhibition)
Settings: time post-induction: 4.5 h; library: site-saturation at positions 5, 18, 19, 20
Listing of entries alongside the reported shrunken log2 fold change.
Measured Endpoint: shrunken log2 fold change

>>> assay_result("RRIRRRPPRLPRPRPRPHIVPRP")
-0.0515
>>> assay_result("RRIRWRPPRLPRPRPRPCRPPRP")
0.115
>>> assay_result("RRIRWRPPRLPRPRPRPYVIPRP")
-0.0496
>>> assay_result("RRIRWRPPRLPRPRPRPIMRPRP")
0.0401
>>> assay_result("RRIRMRPPRLPRPRPRPEDKPRP")
2.94
>>> assay_result("RRIRKRPPRLPRPRPRPYQPPRP")
-0.191
>>> assay_result("RRIRHRPPRLPRPRPRPMYHPRP")
-0.287
>>> assay_result("RRIRSRPPRLPRPRPRPMYNPRP")
-0.557
>>> assay_result("RRIRMRPPRLPRPRPRPNAPPRP")
-0.0273
>>> assay_result("RRIRHRPPRLPRPRPRPGMEPRP")
-0.0685
>>> assay_result("RRIRYRPPRLPRPRPRPQAYPRP")
-0.00884
>>> assay_result("RRIRDRPPRLPRPRPRPMPTPRP")
-0.0113
>>> assay_result("RRIRARPPRLPRPRPRPRVTPRP")
0.462
>>> assay_result("RRIRDRPPRLPRPRPRPHFSPRP")
-0.0977
>>> assay_result("RRIRPRPPRLPRPRPRPIYVPRP")
-0.348

---

# shrunken log2 fold change values compiled below
System: Escherichia coli TOP10
Protocol Description: shrunken log2 fold change of peptide-encoding DNA abundance (4.5 h post-induction vs induction); higher = less antimicrobial activity (less host growth inhibition)
Settings: time post-induction: 4.5 h; library: site-saturation at positions 5, 18, 19, 20
Measured Endpoint: shrunken log2 fold change

>>> assay_result("RRIRMRPPRLPRPRPRPRDAPRP")
1.49
>>> assay_result("RRIRMRPPRLPRPRPRPHNDPRP")
0.00915
>>> assay_result("RRIRMRPPRLPRPRPRPIPQPRP")
0.256
>>> assay_result("RRIRFRPPRLPRPRPRPVQFPRP")
-0.652
>>> assay_result("RRIRIRPPRLPRPRPRPSFWPRP")
0.059
>>> assay_result("RRIRVRPPRLPRPRPRPLFYPRP")
-0.22
>>> assay_result("RRIRFRPPRLPRPRPRPHDAPRP")
0.293
>>> assay_result("RRIRMRPPRLPRPRPRPQTYPRP")
0.144

---

System: Escherichia coli TOP10;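 further: peptides expressed intracellularly from a pBAD plasmid library in pooled LB shake-flask culture, induced with 0.3% L-arabinose, DNA abundance read by NGS, three biological replicates, DESeq2 with apeglm shrinkage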
Protocol Description: shrunken log2 fold change of peptide-encoding DNA abundance (4.5 h post-induction vs induction); higher = less antimicrobial activity (less host growth inhibition)
Settings: time post-induction: 4.5 h; library: site-saturation at positions 5, 18, 19, 20
Mark class 0 for shrunken log2 fold change values under -0.1, and class 1 for everything at or above.

>>> label_class("RRIRMRPPRLPRPRPRPTTGPRP")
"class 1"
>>> label_class("RRIRGRPPRLPRPRPRPSFSPRP")
"class 1"
>>> label_class("RRIRMRPPRLPRPRPRPARKPRP")
"class 1"
>>> label_class("RRIRPRPPRLPRPRPRPMETPRP")
"class 1"
>>> label_class("RRIRARPPRLPRPRPRPYPMPRP")
"class 1"
>>> label_class("RRIRERPPRLPRPRPRPYRKPRP")
"class 0"
>>> label_class("RRIRKRPPRLPRPRPRPEDRPRP")
"class 1"
>>> label_class("RRIRIRPPRLPRPRPRPMYQPRP")
"class 0"
>>> label_class("RRIRLRPPRLPRPRPRPPVAPRP")
"class 1"
>>> label_class("RRIRQRPPRLPRPRPRPPWIPRP")
"class 0"
>>> label_class("RRIRVRPPRLPRPRPRPMFVPRP")
"class 1"
>>> label_class("RRIRLRPPRLPRPRPRPDLTPRP")
"class 1"
>>> label_class("RRIRVRPPRLPRPRPRPWMFPRP")
"class 0"
>>> label_class("RRIRARPPRLPRPRPRPMCHPRP")
"class 1"
>>> label_class("RRIRSRPPRLPRPRPRPATPPRP")
"class 1"
>>> label_class("RRIRYRPPRLPRPRPRPIIFPRP")
"class 1"
>>> label_class("RRIRRRPPRLPRPRPRPGSLPRP")
"class 1"
>>> label_class("RRIRCRPPRLPRPRPRPEQKPRP")
"class 1"
>>> label_class("RRIRHRPPRLPRPRPRPIINPRP")
"class 0"
>>> label_class("RRIRTRPPRLPRPRPRPRAQPRP")
"class 1"
>>> label_class("RRIRGRPPRLPRPRPRPQLCPRP")
"class 1"
>>> label_class("RRIRNRPPRLPRPRPRPDARPRP")
"class 1"
>>> label_class("RRIRCRPPRLPRPRPRPSFCPRP")
"class 0"
>>> label_class("RRIRRRPPRLPRPRPRPWGIPRP")
"class 0"
>>> label_class("RRIRCRPPRLPRPRPRPFLVPRP")
"class 0"
>>> label_class("RRIRLRPPRLPRPRPRPVRGPRP")
"class 1"
>>> label_class("RRIRTRPPRLPRPRPRPPKRPRP")
"class 1"
>>> label_class("RRIRNRPPRLPRPRPRPGMVPRP")
"class 0"
>>> label_class("RRIRSRPPRLPRPRPRPHRIPRP")
"class 0"
>>> label_class("RRIRDRPPRLPRPRPRPTIHPRP")
"class 0"
>>> label_class("RRIRQRPPRLPRPRPRPMHAPRP")
"class 1"
>>> label_class("RRIRYRPPRLPRPRPRPYRSPRP")
"class 1"
>>> label_class("RRIRHRPPRLPRPRPRPQYYPRP")
"class 0"
>>> label_class("RRIRFRPPRLPRPRPRPHYFPRP")
"class 0"
>>> label_class("RRIRSRPPRLPRPRPRPRGDPRP")
"class 1"
>>> label_class("RRIRDRPPRLPRPRPRPWCNPRP")
"class 0"
>>> label_class("RRIRMRPPRLPRPRPRPISAPRP")
"class 1"
>>> label_class("RRIRHRPPRLPRPRPRPDTTPRP")
"class 0"
>>> label_class("RRIRSRPPRLPRPRPRPRGSPRP")
"class 1"
>>> label_class("RRIRHRPPRLPRPRPRPWIMPRP")
"class 0"
>>> label_class("RRIRMRPPRLPRPRPRPVVQPRP")
"class 1"
>>> label_class("RRIRQRPPRLPRPRPRPRDVPRP")
"class 1"
>>> label_class("RRIRPRPPRLPRPRPRPERKPRP")
"class 1"
>>> label_class("RRIRLRPPRLPRPRPRPPSVPRP")
"class 1"
>>> label_class("RRIRHRPPRLPRPRPRPTQYPRP")
"class 1"
>>> label_class("RRIRPRPPRLPRPRPRPVDYPRP")
"class 1"
>>> label_class("RRIRNRPPRLPRPRPRPTCQPRP")
"class 1"
>>> label_class("RRIRSRPPRLPRPRPRPIPQPRP")
"class 0"
>>> label_class("RRIRFRPPRLPRPRPRPEFIPRP")
"class 0"
>>> label_class("RRIRIRPPRLPRPRPRPCPTPRP")
"class 1"
>>> label_class("RRIRLRPPRLPRPRPRPDVHPRP")
"class 0"
>>> label_class("RRIRERPPRLPRPRPRPAPLPRP")
"class 1"
>>> label_class("RRIRVRPPRLPRPRPRPGERPRP")
"class 1"
>>> label_class("RRIRRRPPRLPRPRPRPQAMPRP")
"class 1"
>>> label_class("RRIRDRPPRLPRPRPRPLYRPRP")
"class 0"
>>> label_class("RRIRKRPPRLPRPRPRPESKPRP")
"class 1"
>>> label_class("RRIRVRPPRLPRPRPRPRVTPRP")
"class 1"
>>> label_class("RRIRGRPPRLPRPRPRPAWLPRP")
"class 1"
>>> label_class("RRIRCRPPRLPRPRPRPIECPRP")
"class 1"
>>> label_class("RRIRRRPPRLPRPRPRPFPMPRP")
"class 1"
>>> label_class("RRIRQRPPRLPRPRPRPCYRPRP")
"class 1"
>>> label_class("RRIRQRPPRLPRPRPRPSDPPRP")
"class 1"
>>> label_class("RRIRNRPPRLPRPRPRPHQYPRP")
"class 0"

Hey, just so you know, these numbers are from the supplement of paper PMC9112550.
